In this section, each of the compounds is paired with its reported cell viability.
Tested on: SEM cells
test protocol: cell viability relative to DMSO control; higher = less cytotoxic
run conditions: HPLM + 10% dialyzed FBS; 48 h; 0.569 µM
Output spec: scalar in %, unitless text.

A selection of reference data follows.
smiles string	cell viability (%)
NC1=NC=C(C=C1)C2=CC=C3N=CC\4=C(N(C(=O)\C=C4)C5=CC(=CC=C5)C(F)(F)F)C3=C2	28.6
CC(=O)O[C@@]1(CC[C@H]2[C@@H]3\C=C(C)/C4=C/C(=O)CC[C@]4(C)[C@H]3CC[C@]12C)C(C)=O	95.8
c1cc(CN2CCCNCCNCCCNCC2)ccc1CN1CCCNCCNCCCNCC1	89.8
CCOc1ccc(Nc2nc(-c3c(C)nc4ccccn34)cs2)cc1	20.4
CCN(CC)CCCCNc1nc2cc(Cl)c(Cl)cc2nc1-c1ccc(-c2cccs2)s1	115

Quick one: give measured cell viability for "O=C(NC[C@H]1CN(c2ccc(N3CCOCC3=O)cc2)C(=O)O1)c1ccc(Cl)s1"
125

Quick one: give measured cell viability for "CC1(C)CCC(=C(CN2CCN(CC2)C3=CC=C(C=C3)C(=O)N[S+]([O-])(=O)C4=CC(=C(N[C@H](CCN5CCOCC5)CSC6=CC=CC=C6)C=C4)[S+]([O-])(=O)C(F)(F)F)\C1)/C7=CC=C(Cl)C=C7"
11.3

Quick one: give measured cell viability for "Cc1c(Cn2c(C)nc3c(C(=O)O)cc(N4CCOCC4)cc32)cccc1C(F)(F)F"
115
